- measuredOn: T1, Rhesus macaque CD4-HIS (Acro Biosystems, Cat. CD4-C52H7) (rhesus macaque, UniProt P16003 26-390)
- T1 construct: Bought reagent; also called Rhesus CD4; rhesus CD4-HIS; not shown: His tag
- experimentalProtocol: BLI Octet, mAb on anti-mouse Fc sensor, rhesus CD4-HIS 25-100 nM, 1:1 global fit;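 note: purified antibodies captured at 10 µg/mL, rhesus CD4 analyte run as a three-concentration serial dilution, irrelevant antibody as reference control, one kinetic constant set per antibody from global fitting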

| binder | koff, s⁻¹ |
| --- | --- |
| 75110_05E05A (antibody, V domains shown, Tested as antibody purified from AlivaMab Mouse hybridoma supernatant (captured by anti-mouse IgG Fc)) VH: QVQLQESGPGLVKPSETLSLTCTVSGGSIGSYYWSWIRQPAGKGLEWIGRIYTSGSTNYNPSLKSRVTMSFDTSKNQFSLKLNSVTAADTAVYYCATDGGVGDSLDYWGQGTLVTVSS VL: DIVMTQTPLSLPVTPGEPASISCRSSQSLLDSDDGNTYLDWYLQKPGQSPQLLIYTLSYRASGVPDRFSGSGSGTDFTLKISRVEAEDVGVYYCMQHIEFPFTFGPGTKVDIK | 4.9e-05 |
| 75110_04K10A (antibody, V domains shown, Tested as antibody purified from AlivaMab Mouse hybridoma supernatant (captured by anti-mouse IgG Fc)) VH: EVQLVESGGGLVQPGGSLRLSCAASGFTFSSYWMSWVRQAPGKGLEWVANINQDGSEKYYVDSVKGRFTISRDNAKNSLYLQLNSLRAEDTAMYYCAREGGQWLSLDYWGQGTLVTVSS VL: DIQMTQSPSSVSASVGDRVTITCRASQGISSWLAWYQQKPGKAPKVLIYGVSSFQSGVPSRFSGSGSGTDFILTISSLQPEDFATYYCQQANSFPWTFGQGTKVEIK | 0.0032 |
